- Target under test: Ubiquitin carboxyl-terminal hydrolase 1 (Homo sapiens)
- Experimental protocol: Inhibitors of USP1/UAF1: Pilot qHTS (AID 504865); further: nearly all actives have a fitted effect of over 35% in size; further: potency means the concentration at half of the fitted maximal effect
- Condition context: purified USP1/UAF1, Ub-rhodamine cleavage fluorescence; series mostly up to 114 µM
Results filed as inconclusive are left out. Activity calls are given as the source filed them. The call rests on the fitted dose curve; in most records, active means well fitted inhibition curve with a large enough effect; inconclusive means small, poorly fitted or top-dose-only effect; inactive means flat fitted curve, though single readings scatter.
Parameter: Potency

Some solved entries appear below for comparison.
Molecule	Reported
C[C@@H](N)[C@@H](O)c1ccc(O)c(O)c1	inactive
CNNC	inactive
COc1cc2c(cc1OC)-c1c(OC)c(OC)c(C=O)c3c1[C@H](C2)N(C)CC3	20 µM (active)
[S]=[Sb][S][Sb]=[S]	inactive

Moving on to another molecule below.
Consider the molecule CC[N+](C)(CC)CCC[n+]1c(-c2ccccc2)c2cc(N)ccc2c2ccc(N)cc21 and give its measured Potency. 7.94 µM (active)
